# Assay system: SpRvs167
# Assay procedure: SPOT peptide array binding signal intensity (averaged, normalized) (arbitrary units (background-subtracted, floor 0; scale differs between SH3 domains)); higher = stronger binding of the SH3 domain to the peptide
Measured metric: SPOT peptide array binding signal intensity
Give a plain numeric answer without units written out.

The cases that follow already have their SPOT peptide array binding signal intensity on record.
{"Binder": "AGKRRLPLVRFKASD", "Reported measurement": 248}
{"Binder": "SRSKPLPLTPNSKYN", "Reported measurement": 12.3}
{"Binder": "NIKVLLNPKLGKPVK", "Reported measurement": 18.2}
{"Binder": "NFFRKKLGIPRKLKR", "Reported measurement": 3.67}
{"Binder": "VDFTLPPPPPPPGLD", "Reported measurement": 1}

Exercise: Could you please provide reported SPOT peptide array binding signal intensity for `APPLPPTAPPPPSLP` ? Thanks!
Key: 24.3

The reported measurements were obtained from the supplement of paper PMC4466140.
